Tested on: LXR
Construct: fused on or other part: GST fused to the LBD in the FRET assay
Experiment description: Measured EC50 or IC50 for LXR (LXRα and/or LXRβ; assay and subtype not given)
Setup conditions: IC50 or EC50 class, subtype not specified
pEC50: −log10 of the molar value.
Measured endpoint: pEC50

Below, each entry is followed by its recorded pEC50 result.
Cn1oc(=S)nc1-c1cn(-c2ccc(-c3cccc(S(C)(=O)=O)c3)cc2)c(-c2ccccc2C(F)(F)F)n1	> 6.00
CS(=O)(=O)c1cccc(-c2ccc(COc3cc(C(F)(F)F)nn3-c3c(Cl)cccc3Cl)cc2)c1	> 6.00
CS(=O)(=O)c1cccc(-c2ccc(-n3cc(-n4cccc4C#N)nc3-c3ccccc3C(F)(F)F)cc2)c1	> 6.00
CC(C)(O)c1cc(COc2ccc(-c3ccc(C(=O)O)cc3Cl)cc2)n(-c2c(Cl)cccc2Cl)n1	5.00 to 6.00
CC1CN=C(c2cn(-c3ccc(-c4cccc(S(C)(=O)=O)c4)cc3Cl)c(-c3c(Cl)cccc3Cl)n2)O1 (stereo not drawn)	> 6.00

So what's the measured pEC50 for this one? CC(=O)c1cccc(NC(=O)Nc2cc(C(F)(F)F)nn2-c2ccccc2C(F)(F)F)c1
< 5.00

So what's the measured pEC50 for this one? FC(F)(F)c1cc(COc2ccc(-c3ccccc3)cc2)n(-c2c(Cl)cccc2Cl)n1
5.00 to 6.00

So what's the measured pEC50 for this one? Cc1cc(-n2nc(C(C)(C)O)c(Cl)c2-c2c(F)cccc2Cl)ccc1-c1cccc(S(C)(=O)=O)c1
> 6.00

So what's the measured pEC50 for this one? CS(=O)(=O)c1cccc(C#Cc2cc(C(F)(F)F)nn2-c2ccccc2Cl)c1
> 6.00

So what's the measured pEC50 for this one? CC(C)(O)c1nn(-c2ccc(-c3cccc(S(C)(=O)=O)c3)cc2F)c(-c2c(F)cccc2Cl)c1Cl
> 6.00

====

Listed here are molecules together with their documented EC50.
Test system: LXR
Construct: fused on or other part: GST fused to the LBD in the FRET assay
Experiment description: Measured EC50 or IC50 for LXR (LXRα and/or LXRβ; assay and subtype not given)
Setup conditions: IC50 or EC50 class, subtype not specified

Below, each entry is followed by its recorded EC50 result.
FC(F)(F)c1cc(COc2ccc(-c3ccccc3)cc2)n(-c2ccccc2Cl)n1	1 to 10 µM
CS(=O)(=O)c1cccc(-c2ccc(COc3cc(C(F)(F)F)nn3-c3c(Cl)cccc3Cl)c(F)c2)c1	< 1 µM
CS(=O)(=O)c1cccc(-c2ccc(-n3cc(-n4cccn4)nc3-c3c(Cl)cccc3Cl)cc2)c1	< 1 µM
Cc1cc(-c2cccc(S(C)(=O)=O)c2)ccc1OCc1cc(C(F)(F)F)nn1-c1ccccc1Cl	< 1 µM
CC(C)(O)c1nn(-c2c(Cl)cccc2Cl)c(-c2ccc(-c3cccc(S(C)(=O)=O)c3)s2)c1Cl	< 1 µM
CS(=O)(=O)c1cccc(-c2ccc(-n3cc(-c4ccsc4)nc3-c3cccc(Cl)c3Cl)cc2)c1	< 1 µM
CS(=O)(=O)c1cccc(-c2ccc(-n3cc(N4CCC(O)C4)nc3-c3ccccc3C(F)(F)F)cc2)c1 (stereo not drawn)	< 1 µM
CC1(C)CN=C(c2cn(-c3ccc(-c4cccc(S(C)(=O)=O)c4)cc3)c(-c3c(Cl)cccc3Cl)n2)N1	> 10 µM
CS(=O)(=O)c1cccc(-c2ccc(-n3cc(-c4nc(=O)o[nH]4)nc3-c3ccccc3C(F)(F)F)cc2)c1	< 1 µM
Cc1nsc(-c2cn(-c3ccc(-c4cccc(S(C)(=O)=O)c4)cc3)c(-c3ccccc3C(F)(F)F)n2)n1	> 10 µM

So what's the measured EC50 for this one? NS(=O)(=O)c1cccc(C#Cc2cc(C(F)(F)F)nn2-c2ccccc2Cl)c1
1 to 10 µM

So what's the measured EC50 for this one? Cc1noc(-c2cn(-c3ccc(-c4cccc(S(C)(=O)=O)c4)cc3Cl)c(-c3c(Cl)cccc3Cl)n2)n1
< 1 µM

So what's the measured EC50 for this one? CS(=O)(=O)c1cccc(-c2ccc(-n3cc(N4CCCC4=O)nc3-c3c(Cl)cccc3Cl)cc2)c1
< 1 µM

So what's the measured EC50 for this one? CC(C)(O)c1cc(-c2ccc(-c3cccc(S(C)(=O)=O)c3)s2)n(-c2c(F)cccc2C(F)(F)F)n1
< 1 µM

So what's the measured EC50 for this one? CS(=O)(=O)c1cccc(-c2ccc(NCc3cc(C(F)(F)F)nn3-c3ccccc3Cl)cc2)c1
< 1 µM

====

Test system: LXR
Construct: fused on or other part: GST fused to the LBD in the FRET assay
Experiment description: Measured EC50 or IC50 for LXR (LXRα and/or LXRβ; assay and subtype not given)
Setup conditions: IC50 or EC50 class, subtype not specified
Listed here are molecules together with their documented EC50.

Below, each entry is followed by its recorded EC50 result.
CS(=O)(=O)c1ccc(CNC(=O)c2cc(C(F)(F)F)nn2-c2cc(Cl)ccc2Cl)cc1 [Example 101]	> 10 µM
COC(=O)N1CCCC1c1cn(-c2ccc(-c3cccc(S(C)(=O)=O)c3)cc2)c(C(C)(C)c2ccccc2Cl)n1 (stereo not shown) [Example 977]	< 1 µM
O=C(Oc1cccc(OCc2cc(C(F)(F)F)nn2-c2ccccc2Cl)c1)c1ccccc1 [Example 95]	> 10 µM

Consider the record given below.
So what's the measured EC50 for this one? CS(=O)(=O)c1cccc(-c2ccc(-n3cc([C@H]4CCCN4)nc3-c3ccccc3C(F)(F)F)cc2)c1 [Example 1016]
< 1 µM

====

Measured target: FXR (Homo sapiens)
Sequence (Q96RI1 1-472 isoform Q96RI1-2): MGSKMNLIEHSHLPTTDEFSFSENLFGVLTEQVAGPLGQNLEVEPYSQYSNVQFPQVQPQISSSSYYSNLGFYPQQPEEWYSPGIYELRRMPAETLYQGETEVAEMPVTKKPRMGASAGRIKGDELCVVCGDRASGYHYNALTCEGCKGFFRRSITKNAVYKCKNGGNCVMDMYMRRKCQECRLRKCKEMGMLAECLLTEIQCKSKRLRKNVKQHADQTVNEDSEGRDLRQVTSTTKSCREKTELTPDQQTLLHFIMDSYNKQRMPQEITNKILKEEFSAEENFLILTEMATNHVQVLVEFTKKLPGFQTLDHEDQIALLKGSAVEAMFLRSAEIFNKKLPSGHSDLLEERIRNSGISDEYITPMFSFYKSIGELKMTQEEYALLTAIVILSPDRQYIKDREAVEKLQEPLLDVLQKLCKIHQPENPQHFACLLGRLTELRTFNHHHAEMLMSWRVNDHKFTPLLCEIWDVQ
Experiment description: Measured EC50 or IC50 for FXR (assay not given)
Setup conditions: IC50 or EC50 class; assay not specified
Measured endpoint: EC50

Below, each entry is followed by its recorded EC50 result.
CC(C)c1cc(COc2ccc(-c3ccc(C(=O)O)cc3Cl)cc2)n(-c2c(Cl)cccc2Cl)n1 [Example 907]	< 1 µM
Cc1cc(-c2cccc(S(C)(=O)=O)c2)ccc1-c1cc(C(C)(C)O)nn1-c1c(Cl)cccc1Cl	< 1 µM

So what's the measured EC50 for this one? CC(C)(O)c1cc(-c2ccc(-c3cccc(S(C)(=O)=O)c3)s2)n(-c2c(F)cccc2C(F)(F)F)n1
1 to 10 µM

So what's the measured EC50 for this one? CC(C)(O)c1cc(-c2c(F)cccc2Cl)n(-c2ccc(-c3cccc(S(C)(=O)=O)c3)cc2)n1
1 to 10 µM

So what's the measured EC50 for this one? CC(C)(O)c1nn(-c2c(Cl)cccc2Cl)c(-c2ccc(-c3cccc(S(C)(=O)=O)c3)cc2)c1Cl
< 1 µM

So what's the measured EC50 for this one? Cc1cccc(Cl)c1-n1nc(C(C)(C)O)cc1-c1ccc(-c2cccc(S(C)(=O)=O)c2)s1
1 to 10 µM

So what's the measured EC50 for this one? Cc1cc(-n2nc(C(C)(C)O)c(Cl)c2-c2c(F)cccc2Cl)ccc1-c1cccc(S(C)(=O)=O)c1
1 to 10 µM

So what's the measured EC50 for this one? Cc1cc(-n2nc(C(C)(C)O)cc2-c2c(Cl)cccc2Cl)ccc1-c1cccc(S(C)(=O)=O)c1
1 to 10 µM

So what's the measured EC50 for this one? Cc1cc(-n2nc(C(C)(C)O)cc2-c2c(F)cccc2Cl)ccc1-c1cccc(S(C)(=O)=O)c1
1 to 10 µM

So what's the measured EC50 for this one? Cc1cc(-c2cc(C(C)(C)O)nn2-c2c(Cl)cccc2Cl)ccc1-c1cccc(S(C)(=O)=O)c1
< 1 µM

So what's the measured EC50 for this one? CC(C)(O)c1cc(-c2ccc(-c3cccc(S(C)(=O)=O)c3)s2)n(-c2c(F)cccc2F)n1
1 to 10 µM

So what's the measured EC50 for this one? CC(C)(O)c1cc(-c2ccc(-c3cccc(S(C)(=O)=O)c3)s2)n(-c2c(Cl)cncc2Cl)n1
1 to 10 µM

So what's the measured EC50 for this one? Cc1cc(-c2cccc(S(C)(=O)=O)c2)ccc1-n1nc(C(C)(C)O)c(Cl)c1-c1c(F)cccc1Cl
> 10 µM

So what's the measured EC50 for this one? Cc1cc(-c2cccc(S(C)(=O)=O)c2)ccc1-n1nc(C(C)(C)O)c(Cl)c1-c1c(Cl)cccc1Cl
1 to 10 µM

So what's the measured EC50 for this one? CC(C)(O)c1cc(-c2c(Cl)cccc2Cl)n(-c2ccc(-c3cccc(S(C)(=O)=O)c3)cc2Cl)n1
1 to 10 µM

So what's the measured EC50 for this one? CC(C)(O)c1cc(COc2ccc(-c3ccc(C(=O)O)cc3Cl)cc2)n(-c2c(Cl)cccc2Cl)n1
1 to 10 µM

So what's the measured EC50 for this one? CC(C)(O)c1cc(-c2ccc(-c3cccc(S(C)(=O)=O)c3)cc2Cl)n(-c2c(Cl)cccc2Cl)n1
< 1 µM

So what's the measured EC50 for this one? CC(C)(O)c1cc(-c2c(Cl)cccc2Cl)n(-c2ccc(-c3cccc(S(C)(=O)=O)c3)cc2)n1
1 to 10 µM
